A set of molecules tested on tankyrase 2 (TNKS2) (Homo sapiens), with measured pIC50:
Note: pIC50 values are expressed as the negative base-10 logarithm of concentration in M.

Compound smiles | pIC50
N=C(N)c1ccc2c(=O)[nH]c(-c3ccc(C(F)(F)F)cc3)cn12 | 4.90
O=c1[nH]c(-c2ccc(C(F)(F)F)cc2)cn2c(C3=NCCN3)ccc12 | 5.74
Cc1ccc2c(=O)[nH]c(-c3ccc(C(F)(F)F)cc3)cn12 | 7.14

Measured pIC50 (tankyrase 2 (TNKS2) (Homo sapiens)), entry COc1ccc(-c2cn3c(Br)ccc3c(=O)[nH]2)cc1 : 6.84

Measured pIC50 (tankyrase 2 (TNKS2) (Homo sapiens)), entry Cc1ccc2c(=O)[nH]c(N3CCN(c4ccccc4F)CC3)cn12 : 7.17

Measured pIC50 (tankyrase 2 (TNKS2) (Homo sapiens)), entry O=c1[nH]c(-c2ccc(C(F)(F)F)cc2)cn2c(CO)ccc12 : 6.15

====

System name: Tankyrase 1 (TNKS1) (Homo sapiens)
Construct: His6-TNKS1, MW=28.2 KDa (construct: 1088-1327, I266M)
Sequence (O95271 1088-1327): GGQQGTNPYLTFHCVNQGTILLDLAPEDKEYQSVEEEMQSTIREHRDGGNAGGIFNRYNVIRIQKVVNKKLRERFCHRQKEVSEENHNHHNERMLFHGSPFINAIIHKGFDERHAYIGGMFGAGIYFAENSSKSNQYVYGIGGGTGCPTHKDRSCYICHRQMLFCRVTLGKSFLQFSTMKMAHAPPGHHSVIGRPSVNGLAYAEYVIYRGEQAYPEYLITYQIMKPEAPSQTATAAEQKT
Measurement protocol: μHTS-TNKS-IWR2 TR-FRET binding assay, TNKS1
// classify(record): look up IC50 in ranges low bracket = under 60 nM, middle bracket = from 60 nM up to 200 nM, high bracket = 200 nM and over

Query: Note: place this compound into its band. Item: COc1ccc(-c2cn3c(Br)ccc3c(=O)[nH]2)cc1
Result: low bracket

====

Entries and their measured IC50 follow.
System name: PARP1 (Homo sapiens, UniProt P09874)
Construct: or His6-PARP1 (full length)
Measurement protocol: μHTS-TNKS-IWR2 TR-FRET binding assay, PARP1 in place of TNKS1
Condition label: His6-PARP1 (full length), Biotin-IWR2 60 nM
Expressed in µM, but write only the number.

Previously resolved entries follow.
Compound smiles | Val
NC(=O)c1ccc2c(=O)[nH]c(-c3ccc(C(F)(F)F)cc3)cn12 | 29.5
N#Cc1ccc2c(=O)[nH]c(-c3ccc(C(F)(F)F)cc3)cn12 | 31.2
O=c1[nH]c(-c2ccc(C(F)(F)F)cc2)cn2c(Br)ccc12 | 1.25

Measured IC50 (PARP1 (Homo sapiens, UniProt P09874)), entry O=c1[nH]c(-c2ccc(C(F)(F)F)cc2)cn2c(C3=NCCN3)ccc12 : 34.9

====

System name: Tankyrase 1 (TNKS1) (Homo sapiens)
Construct: His6-TNKS1, MW=28.2 KDa (construct: 1088-1327, I266M)
Measurement protocol: μHTS-TNKS-IWR2 TR-FRET binding assay, TNKS1
pIC50: −log10 of the molar value.
Decision: pIC50 compared against 7; not below it gives Y, below it gives N.

Examples from the recorded data:
Molecule | Category label
O=c1[nH]c(-c2ccc(C(F)(F)F)cc2)cn2c(CO)ccc12 [Example 8] | Y
NC(=O)c1ccc2c(=O)[nH]c(-c3ccc(C(F)(F)F)cc3)cn12 [Example 4] | N
N#Cc1ccc2c(=O)[nH]c(-c3ccc(C(F)(F)F)cc3)cn12 [Example 2] | N
N/C(=N\O)c1ccc2c(=O)[nH]c(-c3ccc(C(F)(F)F)cc3)cn12 [Example 3] | N
O=c1[nH]c(-c2ccc(C(F)(F)F)cc2)cn2c(Br)ccc12 [Example 10] | Y

Query: Check the entry O=c1[nH]c(-c2ccc(C(F)(F)F)cc2)cn2c(C3=NCCN3)ccc12 [Example 6] : does pIC50 equal or exceed 7?
Result: N

Query: Check the entry Cc1ccc2c(=O)[nH]c(-c3ccc(C(F)(F)F)cc3)cn12 [Example 7] : does pIC50 equal or exceed 7?
Result: Y

Query: Check the entry N=C(N)c1ccc2c(=O)[nH]c(-c3ccc(C(F)(F)F)cc3)cn12 [Example 5] : does pIC50 equal or exceed 7?
Result: N
